- System: H. influenzae
- TEST SUMMARY: MIC against isolates of H. influenzae
- Type: cell-based, Haemophilus influenzae
- COND: Haemophilus influenzae, one value per group of strains; read-out: H. influenzae (no. of strains) MIC
- From the text: Compounds of this invention can have useful activity against a variety of pathogenic microorganisms. The in vitro activity of compounds of this invention can be assessed by standard testing procedures such as the determination of minimum inhibitory concentration (MIC) by agar dilution as described in “Approved Standard. […]
REPORTED ENDPOINT: MIC (µg/mL)
One number for each entry, in µg/mL.

Could you tell me MIC for each of these compounds? They are listed below.
1. O=C1O[C@@H](CO)CN1c1ccc(-c2ccc(N3CCOC3=O)nc2)cc1 [Example 13]
2. O=C1O[C@@H](CO)CN1c1ccc(-c2ccc(N3CCCC3=O)nc2)c(F)c1 [Example 10]
3. CC(=O)NC[C@H]1CN(c2ccc(N3CCOCC3)c(F)c2)C(=O)O1 [Linezolid, linezolid]
4. O=C1O[C@@H](CO)CN1c1ccc(-c2ccc(N3CCOC3=O)nc2)c(F)c1 [Example 1]

-- reply
1: 4; 2: 4; 3: 8; 4: 2
